I'd be grateful if you could share measured IC50 for these entries.
Tested on: human breast MDA-MB-361 tumor cell line
assay-procedure: In vitro cell culture growth assay (MTS), MDA-MB-361
Assay type: cell-based
test-conditions: Homo sapiens, MDA-MB-361, 72 h, MTS cell growth assay, three days after drug treatment, MDA-MB-361 cells; read-out: IC50 MDA-MB-361

INSERT INTO assay_data (molecule, tested_on, readout_label, meas_value) VALUES
  ('O=C(Nc1ccc(C(=O)N2CCNCC2)cc1)Nc1ccc(-c2nc(N3CCOCC3)nc(N3C4CCC3COC4)n2)cc1 [Example 756]', 'human breast MDA-MB-361 tumor cell line', 'IC50', '< 3 nM');

Batch: IC50 for all items listed.
1. CC1CN(C(=O)c2ccc(NC(=O)Nc3ccc(-c4nc(N5CCOCC5)nc(N5C6CCC5COC6)n4)cc3)cc2)CC(C)N1 (centres unmarked) [Example 703]
2. O=C(Nc1ccc(C(=O)N2CCC(N3CCOCC3)CC2)cc1)Nc1ccc(-c2nc(N3CCOCC3)nc(N3C4CCC3COC4)n2)cc1 [Example 757]
3. CN(C)C1CCN(C(=O)c2ccc(NC(=O)Nc3ccc(-c4nc(NS(=O)(=O)c5ccccc5)nc(N5CCOCC5)n4)cc3)cc2)CC1 [Example 786]

< 3 nM
< 3 nM
> 1000 nM

Entry CN1CCN(C(=O)c2ccc(NC(=O)Nc3ccc(-c4nc(N5CCOCC5)nc(N5C6CCC5COC6)n4)cc3)cc2)CC1 [Example 697] : reported IC50 = ?
< 30 nM

###

tested-on: Human mTOR (FLAG-TOR) (Homo sapiens)
Sequence (P42345 1360-2549 limits assumed): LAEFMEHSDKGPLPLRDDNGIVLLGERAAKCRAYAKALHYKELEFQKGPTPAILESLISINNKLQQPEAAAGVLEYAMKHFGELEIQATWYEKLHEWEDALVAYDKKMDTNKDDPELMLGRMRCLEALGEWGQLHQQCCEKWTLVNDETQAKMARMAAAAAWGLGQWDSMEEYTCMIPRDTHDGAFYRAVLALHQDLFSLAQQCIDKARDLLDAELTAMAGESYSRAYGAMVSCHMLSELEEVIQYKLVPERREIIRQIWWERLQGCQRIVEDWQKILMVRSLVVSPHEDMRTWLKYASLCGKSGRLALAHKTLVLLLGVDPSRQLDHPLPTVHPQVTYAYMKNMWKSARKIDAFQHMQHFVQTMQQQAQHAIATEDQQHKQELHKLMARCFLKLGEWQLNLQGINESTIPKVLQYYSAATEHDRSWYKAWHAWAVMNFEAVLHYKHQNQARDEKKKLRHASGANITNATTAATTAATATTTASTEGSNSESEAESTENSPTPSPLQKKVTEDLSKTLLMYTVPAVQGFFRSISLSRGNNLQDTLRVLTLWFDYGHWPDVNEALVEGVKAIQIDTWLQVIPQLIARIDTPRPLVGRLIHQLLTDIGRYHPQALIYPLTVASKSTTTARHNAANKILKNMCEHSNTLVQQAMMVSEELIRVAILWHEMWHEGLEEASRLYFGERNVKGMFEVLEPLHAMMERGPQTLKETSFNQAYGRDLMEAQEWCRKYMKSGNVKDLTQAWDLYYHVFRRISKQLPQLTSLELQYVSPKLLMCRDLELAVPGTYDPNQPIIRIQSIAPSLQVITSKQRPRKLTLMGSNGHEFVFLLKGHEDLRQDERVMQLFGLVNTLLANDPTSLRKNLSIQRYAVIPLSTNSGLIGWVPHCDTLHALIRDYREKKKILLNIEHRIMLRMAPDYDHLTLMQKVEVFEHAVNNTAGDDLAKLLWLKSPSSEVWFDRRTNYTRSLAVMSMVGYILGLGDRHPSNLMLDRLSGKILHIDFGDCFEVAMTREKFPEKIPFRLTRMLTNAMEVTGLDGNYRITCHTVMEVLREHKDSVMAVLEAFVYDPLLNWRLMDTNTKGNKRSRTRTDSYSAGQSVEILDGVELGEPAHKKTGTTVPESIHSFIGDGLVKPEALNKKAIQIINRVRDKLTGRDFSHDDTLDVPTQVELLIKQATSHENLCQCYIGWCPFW
assay-procedure: mTOR kinase assay (DELFIA format, purified enzyme)
Format: biochemical
test-conditions: read-out: IC50 mTOR
I'd be grateful if you could share measured pIC50 for these entries.
Numbers only, as −log10 of the molar value.

Examples from the recorded data:
INSERT INTO measurements (compound, readout_label, meas_value) VALUES
  ('CNC(=O)Nc1ccc(-c2nc(-c3ccc(NC(=O)Nc4cccc(C(N)=O)c4)cc3)nc(N3C(C)COCC3C)n2)cc1 (stereo not drawn)', 'pIC50', 7.64),
  ('O=C(Nc1ccncc1)Nc1ccc(-c2nc(N3CCC(NCCN4CCOCC4)CC3)nc(N3CC4CCC(C3)O4)n2)cc1', 'pIC50', 6.81),
  ('CN1CCN(C(=O)c2ccc(NC(=O)Nc3ccc(-c4nc(-c5cccs5)nc(N5CCOCC5)n4)cc3)cc2)CC1', 'pIC50', 8.00),
  ('O=C(Nc1ccncc1)Nc1ccc(-c2nc(N3CCOCC3)nc(N3C4COCC3C(OCc3ccccc3)C4)n2)cc1 (stereo not drawn)', 'pIC50', 7.77),
  ('CN(C)C1CCN(C(=O)c2ccc(NC(=O)Nc3ccc(-c4nc(N5CCOCC5)nc(N5C6COCC5COC6)n4)cc3)cc2)CC1', 'pIC50', 9.70),
  ('C[C@@H]1COCCN1c1nc(-c2ccc(NC(=O)Nc3cccnc3)cc2)nc(N2C3CCC2COC3)n1', 'pIC50', 9.42),
  ('O=C(Nc1ccc(-c2nc(NN3CCN(C4CCCC4)CC3)nc(N3CC4CCC(C3)O4)n2)cc1)Nc1cccnc1', 'pIC50', 6.77),
  ('O=C(Nc1ccncc1)Nc1ccc(-c2nc(N3CCC3)nc(N3CCOCC3)n2)cc1', 'pIC50', 7.57),
  ('O=C(Nc1ccc(C(=O)O)cc1)Nc1ccc(-c2nc(N3CCCOCC3)nc(N3CCOCC3)n2)cc1', 'pIC50', 8.10),
  ('CNC(=O)Nc1ccc(-c2nc(OC(COC)COC)nc(N3CC4CCC(C3)O4)n2)cc1', 'pIC50', 8.80);

Batch: pIC50 for all items listed.
1. CCN1CCN(C(=O)c2ccc(NC(=O)Nc3ccc(-c4nc(N5CCOC[C@H]5C)nc(N5CCOC[C@@H]5C)n4)cc3)cc2)CC1
2. C[C@H]1COCCN1c1nc(-c2ccc(NC(=O)Nc3ccncc3)cc2)nc(N2CCOCC2)n1
3. COC(=O)c1ccc(NC(=O)Nc2ccc(-c3nc(N4CCOCC4)nc(N4CCOCC4)n3)cc2)cc1
4. CNC(=O)Nc1ccc(-c2nc(-c3ccc(NC(=O)Nc4cccnc4)cc3)nc(N3C(C)COCC3C)n2)cc1 (stereo not drawn)
5. Cc1cc(NC(=O)Nc2ccc(-c3nc(OC4CCOCC4)nc(N4CCOCC4)n3)cc2)ccn1
6. O=C(Nc1ccc(C(=O)N2CCOCC2)cc1)Nc1ccc(-c2nc(C3CCOCC3)nc(N3C4CCC3COC4)n2)cc1
7. Oc1cccc(-c2nc(N3CCOCC3)nc(N3C4CCC3COC4)n2)c1
8. OCc1cccc(-c2nc(N3CCOCC3)nc(N3C4CCC3COC4)n2)c1

[8.52, 8.80, 8.60, 7.77, 8.71, 9.40, 7.60, 7.05]

###

System: human breast MDA-MB-361 tumor cell line
assay-procedure: In vitro cell culture growth assay (MTS), MDA-MB-361
Assay type: cell-based
test-conditions: Homo sapiens, MDA-MB-361, 72 h, read-out: IC50 MDA-MB-361
pIC50: −log10 of the molar value.
I'd be grateful if you could share measured pIC50 for these entries.

Examples from the recorded data:
INSERT INTO results (mol_smiles, meas_value) VALUES
  ('COc1nc(-c2ccc(NC(=O)Nc3ccc(C(=O)NCCN4CCCCC4)cc3)cc2)nc(N2CCOCC2)n1', '> 7.51'),
  ('CC(C)Oc1nc(-c2ccc(NC(=O)Nc3ccc(C(=O)NC4CCN(C)CC4)cc3)cc2)nc(N2CCOCC2)n1', '> 7.52'),
  ('CN1CCN(C(=O)c2ccc(NC(=O)Nc3ccc(-c4nc(N5CCOCC5)[nH]c(=O)n4)cc3)cc2)CC1', '< 6.00');

Which pIC50 is reported with human breast MDA-MB-361 tumor cell line for this entry: `COc1nc(-c2ccc(NC(=O)Nc3ccc(C(=O)NCCN(C)C)cc3)cc2)nc(N2CCOCC2)n1` ?
> 7.51

###

tested-on: PI3K-γ (Homo sapiens, UniProt P48736)
Sequence (P48736 whole entry, species assumed): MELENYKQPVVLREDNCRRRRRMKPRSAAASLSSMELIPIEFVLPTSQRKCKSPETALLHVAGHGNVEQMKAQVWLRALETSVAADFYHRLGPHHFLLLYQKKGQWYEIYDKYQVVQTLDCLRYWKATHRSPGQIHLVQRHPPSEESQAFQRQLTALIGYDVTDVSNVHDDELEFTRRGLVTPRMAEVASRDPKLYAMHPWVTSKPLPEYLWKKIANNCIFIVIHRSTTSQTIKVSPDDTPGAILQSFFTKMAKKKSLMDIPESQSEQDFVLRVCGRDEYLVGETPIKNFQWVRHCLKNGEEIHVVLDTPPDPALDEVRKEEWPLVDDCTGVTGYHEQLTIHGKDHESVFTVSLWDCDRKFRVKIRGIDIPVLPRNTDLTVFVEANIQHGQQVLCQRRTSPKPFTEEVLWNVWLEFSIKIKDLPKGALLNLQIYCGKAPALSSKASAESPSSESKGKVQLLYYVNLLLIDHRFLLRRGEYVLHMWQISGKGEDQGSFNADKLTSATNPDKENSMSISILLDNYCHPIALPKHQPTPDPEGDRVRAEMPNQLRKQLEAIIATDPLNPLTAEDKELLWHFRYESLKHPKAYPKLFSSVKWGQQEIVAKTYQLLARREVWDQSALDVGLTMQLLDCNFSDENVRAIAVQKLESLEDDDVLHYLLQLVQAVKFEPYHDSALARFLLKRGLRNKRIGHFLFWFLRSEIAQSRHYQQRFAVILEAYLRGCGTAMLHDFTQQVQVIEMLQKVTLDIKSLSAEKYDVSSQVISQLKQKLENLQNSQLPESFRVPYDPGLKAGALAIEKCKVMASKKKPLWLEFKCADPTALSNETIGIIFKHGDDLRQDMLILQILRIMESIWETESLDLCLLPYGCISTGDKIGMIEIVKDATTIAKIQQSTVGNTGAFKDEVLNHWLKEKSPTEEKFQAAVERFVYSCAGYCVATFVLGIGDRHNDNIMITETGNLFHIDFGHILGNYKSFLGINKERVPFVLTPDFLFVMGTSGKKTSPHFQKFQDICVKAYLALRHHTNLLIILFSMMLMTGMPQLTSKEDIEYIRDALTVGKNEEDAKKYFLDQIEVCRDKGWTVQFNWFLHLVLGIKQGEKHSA
assay-procedure: PI3K-gamma fluorescence polarization assay
test-conditions: read-out: IC50 PI3Kγ
I'd be grateful if you could share measured log10 IC50 for these entries.
Log scale reminder: IC50 in nM, then log10 taken.

Examples from the recorded data:
INSERT INTO assay_data (molecule, tested_on, meas_value) VALUES
  ('CC(C)N1CCN(c2ccc(NC(=O)Nc3ccc(-c4nc(C5CCOCC5)nc(N5CCOC[C@H]5C)n4)cc3)cc2)CC1', 'PI3K-γ (Homo sapiens, UniProt P48736)', 3.00),
  ('CC(O)c1cccc(NC(=O)Nc2ccc(-c3nc(N4CCOCC4)nc(N4CCOCC4)n3)cc2)c1 (centres unmarked)', 'PI3K-γ (Homo sapiens, UniProt P48736)', 1.87),
  ('CN1CCC(NC(=O)Nc2ccc(-c3nc(N4CCOCC4)nc(N4CCOCC4)n3)cc2)CC1', 'PI3K-γ (Homo sapiens, UniProt P48736)', 3.95);

Batch: log10 IC50 for all items listed.
1. CC(O)c1ccc(NC(=O)Nc2ccc(-c3nc(N4CCOCC4)nc(N4C[C@H]5C[C@@H]4CN5C(=O)OC(C)(C)C)n3)cc2)cc1 (some centres unmarked)
2. CCNC(=O)Nc1ccc(-c2nc(N3CCOCC3)nc(N3CCOCC3)n2)cc1
3. O=C(Nc1ccc(-c2nc(N3CCOCC3)nc(N3C4CCC3COC4)n2)cc1)Nc1ccnc(-c2cccnc2)c1
4. CC(C)N1CCN(C(=O)c2ccc(NC(=O)Nc3ccc(-c4nc(N5C6CCC5COC6)nc(N5CCOC[C@@H]5C)n4)cc3)cc2)CC1
5. Cc1nc(-c2ccc(NC(=O)Nc3ccncc3)cc2)nc(N2CCOCC2)n1

1. 2.42
2. 2.91
3. 1.64
4. 1.85
5. 2.19

Batch: log10 IC50 for all items listed.
1. O=C(Nc1ccncc1)Nc1ccc(-c2nc(N3CCC(O)CC3)nc(N3CC4CCC(C3)O4)n2)cc1
2. CC(C)N1CCN(C(=O)c2ccc(NC(=O)Nc3ccc(-c4nc(N5CCOCC5)nc(N5CC6CCC5CO6)n4)cc3)cc2)CC1 (centres unmarked)

1: 3.36; 2: 1.53

Batch: log10 IC50 for all items listed.
1. O=C(Nc1ccc(-c2nc(NCCC3CCNCC3)nc(N3CC4CCC(C3)O4)n2)cc1)Nc1cccnc1
2. C[C@@H]1COCCN1c1nc(-c2ccc(NC(=O)Nc3ccncc3)cc2)nc(N2C3CCC2COC3)n1
3. CCCCc1nc(-c2ccc(NC(=O)Nc3ccc(C=O)cc3)cc2)nc(N2CCOCC2)n1
4. CN(C)C1CCN(C(=O)c2ccc(NC(=O)Nc3ccc(-c4nc(N5CCCC5)nc(N5CCOCC5)n4)cc3)cc2)CC1
5. O=C(Nc1ccc(C(=O)O)cc1)Nc1ccc(-c2nc(NS(=O)(=O)c3ccccc3)nc(N3CCOCC3)n2)cc1
6. CCN1CCN(C(=O)c2ccc(NC(=O)Nc3ccc(-c4nc(N5CCOCC5)nc(N5CCN(C(=O)N(C)C)CC5)n4)cc3)cc2)CC1
7. CCN1CCN(C(=O)c2ccc(NC(=O)Nc3ccc(-c4nc(N5CCOC[C@H]5C)nc(N5CCOC[C@@H]5C)n4)cc3)cc2)CC1

1: 3.98; 2: 3.40; 3: 1.93; 4: 1.67; 5: 2.77; 6: 1.58; 7: 2.01

Batch: log10 IC50 for all items listed.
1. CN(C)Cc1ccc(NC(=O)Nc2ccc(-c3nc(N4CCSCC4)nc(N4C5CCC4COC5)n3)cc2)cc1
2. C[C@@H]1COCCN1c1nc(-c2ccc(NC(=O)Nc3ccc(C(=O)N4CCN(C)CC4)cc3)cc2)nc(N2C3CCC2COC3)n1
3. Cc1ccc(NC(=O)Nc2ccc(-c3nc(N4CCOCC4)nc(N4C5CCC4COC5)n3)cc2)cc1

3.35
3.04
2.09
